Target of assay: FKBP12 / FRB ternary complex (Homo sapiens (Human), UniProt P42345+P62942)
Sequence (P62942 whole entry): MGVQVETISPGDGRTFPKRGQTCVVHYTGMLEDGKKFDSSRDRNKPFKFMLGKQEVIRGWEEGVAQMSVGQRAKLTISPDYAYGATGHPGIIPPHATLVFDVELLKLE
Sequence (P42345 2012-2144): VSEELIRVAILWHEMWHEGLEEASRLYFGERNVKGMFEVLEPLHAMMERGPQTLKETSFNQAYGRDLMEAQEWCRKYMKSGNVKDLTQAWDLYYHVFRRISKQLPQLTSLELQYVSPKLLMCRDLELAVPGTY
Assay summary: SPR assay to characterize ternary complex formation with FKBP12 (FRB binding to rapalog-saturated FKBP12)
Condition label: FRB dilutions with 100 nM rapalog on immobilized FKBP12
Attribute measured: Kd

Notebook entry, FKBP12 / FRB ternary complex (Homo sapiens (Human), UniProt P42345+P62942) assay: Kd of CO[C@@H]1C[C@H](C[C@@H](C)[C@@H]2CC(=O)[C@H](C)/C=C(\C)[C@@H](O)[C@@H](OC)C(=O)[C@H](C)C[C@H](C)/C=C/C=C/C=C(\C)[C@@H](OCC3CC3)C[C@@H]3CC[C@@H](C)[C@@](O)(O3)C(=O)C(=O)N3CCCC[C@H]3C(=O)O2)CC[C@H]1OCCCS(C)(=O)=O = ? < 300 nM

State its Kd on FKBP12 / FRB ternary complex (Homo sapiens (Human), UniProt P42345+P62942): CCOC(=O)COC1CCC(CC(C)C2CC(=O)C(C)C=C(C)C(O)C(OC)C(=O)C(C)CC(C)C=CC=CC=C(C)C(OCC3CCC3)CC3CCC(C)C(O)(O3)C(=O)C(=O)N3CCCCC3C(=O)O2)CC1OC (centres unmarked) 300 to 800 nM

Short answer please: Kd, FKBP12 / FRB ternary complex (Homo sapiens (Human), UniProt P42345+P62942), entry COC1C(=O)C(C)CC/C=C/C=C/C=C(\C)C(NS(=O)(=O)CCCS(=O)(=O)O)C[C@H]2CC[C@H](C)[C@](O)(O2)C(=O)C(=O)N(C)C(C)C(=O)OC([C@H](C)C[C@@H]2CC[C@@H](OC3CC3)[C@H](OC)C2)CC(=O)C(C)/C=C(\C)C1O (some centres unmarked) 300 to 800 nM

# returns recorded Kd (system: FKBP12 / FRB ternary complex (Homo sapiens (Human), UniProt P42345+P62942)) for COCCOCCS(=O)(=O)N[C@H]1C[C@@H]2CC[C@@H](C)[C@@](O)(O2)C(=O)C(=O)N2CCCC[C@H]2C(=O)O[C@H]([C@H](C)C[C@@H]2CC[C@@H](O)[C@H](OC)C2)CC(=O)[C@H](C)/C=C(\C)[C@@H](O)[C@@H](OC)C(=O)[C@H](C)C[C@H](C)/C=C/C=C/C=C/1C < 300 nM

Request: Kd, test system FKBP12 / FRB ternary complex (Homo sapiens (Human), UniProt P42345+P62942), entry COC1C(=O)C(C)CC/C=C/C=C/C=C(\C)[C@@H](NS(=O)(=O)CCO)C[C@H]2CC[C@H](C)[C@](O)(O2)C(=O)C(=O)N(C)C(C)C(=O)OC([C@H](C)C[C@@H]2CC[C@@H](OC3CC3)[C@H](OC)C2)CC(=O)C(C)/C=C(\C)C1O (some centres unmarked) 300 to 800 nM

// lookup Kd | system=FKBP12 / FRB ternary complex (Homo sapiens (Human), UniProt P42345+P62942) | key= COC1CC(CC(C)C2CC(=O)C(C)C=C(C)C(O)C(OC)C(=O)C(C)CC(C)C=CC=CC=C(C)C(NS(=O)(=O)C3CC3)CC3CCC(C)C(O)(O3)C(=O)C(=O)N3CCCCC3C(=O)O2)CCC1OCCCO (mixture of isomers) < 300 nM

Please provide the recorded Kd for CO[C@@H]1C[C@H](C[C@@H](C)[C@@H]2CC(=O)[C@H](C)/C=C(\C)[C@@H](O)[C@@H](OC)C(=O)[C@H](C)C[C@H](C)/C=C/C=C/C=C(\C)[C@@H](OCCC3COC3)C[C@@H]3CC[C@@H](C)[C@@](O)(O3)C(=O)C(=O)N3CCCC[C@H]3C(=O)O2)CC[C@H]1O , tested on FKBP12 / FRB ternary complex (Homo sapiens (Human), UniProt P42345+P62942). > 800 nM

# query: Kd | item CO[C@@H]1C[C@H](C[C@@H](C)[C@@H]2CC(=O)[C@H](C)/C=C(\C)[C@@H](O)[C@@H](OC)C(=O)[C@H](C)C[C@H](C)/C=C/C=C/C=C(\C)[C@H](NS(=O)(=O)CC3CCCCC3)C[C@@H]3CC[C@@H](C)[C@@](O)(O3)C(=O)C(=O)N3CCCC[C@H]3C(=O)O2)CC[C@H]1O | system: FKBP12 / FRB ternary complex (Homo sapiens (Human), UniProt P42345+P62942) > 800 nM

Test system FKBP12 / FRB ternary complex (Homo sapiens (Human), UniProt P42345+P62942); read-out Kd; what value for CO[C@@H]1C[C@H](C[C@@H](C)[C@@H]2CC(=O)[C@H](C)/C=C(\C)[C@@H](O)[C@@H](OC)C(=O)[C@H](C)C[C@H](C)/C=C/C=C/C=C(\C)[C@@H](OCCC3CCS(=O)(=O)C3)C[C@@H]3CC[C@@H](C)[C@@](O)(O3)C(=O)C(=O)N3CCCC[C@H]3C(=O)O2)CC[C@H]1O (some centres unmarked) ? > 800 nM

Given the entry CO[C@@H]1C[C@H](C[C@@H](C)[C@@H]2CC(=O)[C@H](C)/C=C(\C)[C@@H](O)[C@@H](OC)C(=O)[C@H](C)C[C@H](C)/C=C/C=C/C=C(\C)[C@@H](NS(=O)(=O)CC3CCCC3)C[C@@H]3CC[C@@H](C)[C@@](O)(O3)C(=O)C(=O)N3CCCC[C@H]3C(=O)O2)CC[C@H]1O , what Kd was observed with FKBP12 / FRB ternary complex (Homo sapiens (Human), UniProt P42345+P62942)? > 800 nM

Notebook entry, FKBP12 / FRB ternary complex (Homo sapiens (Human), UniProt P42345+P62942) assay: Kd of COCCOCCOCCS(=O)(=O)N[C@H]1C[C@@H]2CC[C@@H](C)[C@@](O)(O2)C(=O)C(=O)N2CCCC[C@H]2C(=O)O[C@H]([C@H](C)C[C@@H]2CC[C@@H](O)[C@H](OC)C2)CC(=O)[C@H](C)/C=C(\C)[C@@H](O)[C@@H](OC)C(=O)[C@H](C)C[C@H](C)/C=C/C=C/C=C/1C = ? 300 to 800 nM

API: value(readout=Kd, system=FKBP12 / FRB ternary complex (Homo sapiens (Human), UniProt P42345+P62942)) for record COC1CC(CC(C)C2CC(=O)C(C)C=C(C)C(O)C(OC)C(=O)C(C)CC(C)C=CC=CC=C(C)C(OC3CC3)CC3CCC(C)C(O)(O3)C(=O)C(=O)N3CCCCC3C(=O)O2)CCC1OCCCO (centres unmarked) [Compound 52] < 300 nM

# returns recorded Kd (system: FKBP12 / FRB ternary complex (Homo sapiens (Human), UniProt P42345+P62942)) for COC1CC(CC(C)C2CC(=O)C(C)C=C(C)C(O)C(OC)C(=O)C(C)CC(C)C=CC=CC=C(C)C(OCCC3COC3)CC3CCC(C)C(O)(O3)C(=O)C(=O)N3CCCCC3C(=O)O2)CCC1OCCO (centres unmarked) > 800 nM

Kindly state the measured Kd obtained for COCCOCCS(=O)(=O)NC1CC2CCC(C)C(O)(O2)C(=O)C(=O)N2CCCCC2C(=O)OC(C(C)CC2CCC(OCCO)C(OC)C2)CC(=O)C(C)C=C(C)C(O)C(OC)C(=O)C(C)CC(C)C=CC=CC=C1C (mixture of isomers) with FKBP12 / FRB ternary complex (Homo sapiens (Human), UniProt P42345+P62942). < 300 nM

* * *

Consider the following compounds; for each one, report its pKd.
Target of assay: FKBP51 / FRB ternary complex (Homo sapiens (Human), UniProt P42345+Q13451)
Sequence (Q13451 whole entry): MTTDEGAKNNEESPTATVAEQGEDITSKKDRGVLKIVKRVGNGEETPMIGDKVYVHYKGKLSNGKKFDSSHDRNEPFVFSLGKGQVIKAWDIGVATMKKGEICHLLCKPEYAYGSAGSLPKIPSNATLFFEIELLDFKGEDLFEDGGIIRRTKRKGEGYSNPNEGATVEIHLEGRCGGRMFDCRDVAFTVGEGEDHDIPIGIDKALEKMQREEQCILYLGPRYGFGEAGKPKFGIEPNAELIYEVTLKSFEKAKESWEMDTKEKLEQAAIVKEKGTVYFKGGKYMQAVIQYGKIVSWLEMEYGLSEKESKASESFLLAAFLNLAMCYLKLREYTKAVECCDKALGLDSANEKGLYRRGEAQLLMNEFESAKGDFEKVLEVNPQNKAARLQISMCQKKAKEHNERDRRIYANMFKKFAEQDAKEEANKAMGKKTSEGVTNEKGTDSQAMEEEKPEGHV
Sequence (P42345 2012-2144): as the sequence (P42345 2012-2144) above
Assay summary: SPR assay to characterize ternary complex formation with FKBP51 (FRB binding to rapalog-saturated FKBP51)
Condition label: FRB dilutions with 100 nM rapalog on immobilized FKBP51
pKd: −log10 of the molar value.

FKBP51 / FRB ternary complex (Homo sapiens (Human), UniProt P42345+Q13451) / pKd / COC1CC(CC(C)C2CC(=O)C(C)C=C(C)C(O)C(OC)C(=O)C(C)CC(C)C=CC=CC=C(C)C(OCC3CC3)CC3CCC(C)C(O)(O3)C(=O)C(=O)N3CCCCC3C(=O)O2)CCC1OCCCO (centres unmarked) [Compound 42] : value? < 6.10

What pKd appears in the records for this compound with FKBP51 / FRB ternary complex (Homo sapiens (Human), UniProt P42345+Q13451)? CCOC(=O)COC1CCC(CC(C)C2CC(=O)C(C)C=C(C)C(O)C(OC)C(=O)C(C)CC(C)C=CC=CC=C(C)C(NS(=O)(=O)CCOC)CC3CCC(C)C(O)(O3)C(=O)C(=O)N3CCCCC3C(=O)O2)CC1OC (mixture of isomers) < 6.10
